system: NCI-H460; experiment: Antiproliferative activity against human NCI-H460 cell line by MTT assay; format: functional, cell-based
quantity kind: IC50 (µM)

Would you please look over these solved cases?
molecule	quantity kind	observed result
O=P(O)(O)C(O)(Cc1cccnc1)P(=O)(O)O [RISEDRONIC ACID]	IC50	43.7
O=P([O-])(O)C(O)(C[n+]1cccc(-c2ccc(O)cc2)c1)P(=O)(O)O (stereo not given)	IC50	74.4

1. O=P(O)(O)C(Nc1ncccc1OCc1ccccc1)P(=O)(O)O
2. CC(C)(C)C(=O)OCOP(=O)(OCOC(=O)C(C)(C)C)C(Cc1cccc(-c2cccc(-c3ccccc3)c2)c1)P(=O)(OCOC(=O)C(C)(C)C)OCOC(=O)C(C)(C)C
Between these two entries, 1 and 2 , state which has the higher IC50. When you have decided, please share the label of that item.
1

---

system: MCF7; assay: Antiproliferative activity against human MCF7 cell line by MTT assay; assay type: functional, cell-based
quantity kind: IC50 (µM)

compound	quantity kind	observed result
O=P(O)(O)C(O)(Cc1cccc(-c2cccc(-c3ccccc3)c2)c1)P(=O)(O)O	IC50	152

A. O=P(O)(O)C(Cc1ccc(Br)c(Br)c1)P(=O)(O)O
B. O=P(O)(O)C(O)(CCc1cccc(-c2ccccc2-c2ccccc2)c1)P(=O)(O)O
C. CC(C)(C)C(=O)OCOP(=O)(OCOC(=O)C(C)(C)C)C(Cc1ccc(Br)c(Br)c1)P(=O)(OCOC(=O)C(C)(C)C)OCOC(=O)C(C)(C)C
D. O=P([O-])(O)C(C[n+]1ccc(-c2ccccc2-c2ccccc2)cc1)P(=O)(O)O (stereo unspecified)
Arrange the 4 compounds from largest to smallest IC50. Present the labels in the sequence the task asks for.
A, D, B, C
(A: 533 µM, D: 280 µM, B: 146 µM, C: 0.22 µM)

---

test system: NCI-H460; experiment: Antiproliferative activity against human NCI-H460 cell line by MTT assay; assay type: functional, cell-based
pIC50: −log10 of the molar value.
quantity kind: pIC50

compound	observed result
O=P(O)(O)C(CNc1ccncc1)P(=O)(O)O	4.90

a. Cc1ccc2c(ccc[n+]2CC(O)(P(=O)([O-])O)P(=O)(O)O)c1 (stereo not given)
b. CCC(C)CNC(P(=O)(O)O)P(=O)(O)O (stereo not given)
Between these two entries, a and b , state which has the higher pIC50. When you have decided, please share the label of that item.
a
(a: 3.55, b: 3.33)

---

tested on: NCI-H460; assay: Antiproliferative activity against human NCI-H460 cell line by MTT assay; type: functional, cell-based
quantity kind: IC50 (µM)

Would you please look over these solved cases?
compound	uom	IC50
O=P([O-])(O)C(C[n+]1cccc(-c2ccccc2-c2ccccc2)c1)P(=O)(O)O (stereo not given)	µM	208
O=P(O)(O)C(O)(c1cccc(-c2cccc(-c3ccccc3)c2)c1)P(=O)(O)O	µM	285
CC(C)OC(=O)OCOP(=O)(OCOC(=O)OC(C)C)C(Cc1ccc(Cl)c(Cl)c1)P(=O)(OCOC(=O)OC(C)C)OCOC(=O)OC(C)C	µM	4.85
O=P([O-])(O)C(O)(C[n+]1ccc2ccccc2c1)P(=O)(O)O (stereo not given)	µM	297
O=P([O-])(O)C(C[n+]1ccc(-c2ccccc2-c2ccccc2)cc1)P(=O)(O)O (stereo not given)	µM	284

I. O=P(O)(O)C(CNCc1cccc(-c2ccccc2)c1)P(=O)(O)O
II. O=P([O-])(O)C(C[n+]1ccccc1)P(=O)(O)O (stereo not given)
Between these two entries, I and II , state which has the higher IC50. When you have decided, please share the label of that item.
II
(II: 109 µM, I: 5.73 µM)

P. O=P([O-])(O)C(C[n+]1cccc(-c2ccc(-c3ccccc3)cc2)c1)P(=O)(O)O (stereo not given)
Q. O=P([O-])(O)C(C[n+]1cccc(Br)c1)P(=O)(O)O (stereo not given)
R. O=P([O-])(O)C(O)(C[n+]1ccc(-c2ccccc2)cc1)P(=O)(O)O (stereo not given)
S. COc1cc[n+](CC(O)(P(=O)([O-])O)P(=O)(O)O)cc1 (stereo not given)
Arrange the 4 compounds from largest to smallest IC50. Present the labels in the sequence the task asks for.
S, R, Q, P

I. O=P(O)(O)C(O)(Cc1cccc(-c2ccccc2-c2ccccc2)c1)P(=O)(O)O
II. O=P([O-])(O)C(C[n+]1ccc(Cc2ccccc2)cc1)P(=O)(O)O (stereo not given)
III. O=P([O-])(O)C(O)(C[n+]1cccc(Cc2ccccc2)c1)P(=O)(O)O (stereo not given)
IV. O=P([O-])(O)C(O)(C[n+]1ccc(Cc2ccccc2)cc1)P(=O)(O)O (stereo not given)
Arrange the 4 compounds from largest to smallest IC50. Present the labels in the sequence the task asks for.
IV, II, I, III

---

tested on: NCI-H460; assay: Antiproliferative activity against human NCI-H460 cell line by MTT assay; type: functional, cell-based
pIC50: −log10 of the molar value.
quantity kind: pIC50

Would you please look over these solved cases?
compound	pIC50
O=P([O-])(O)C(O)(C[n+]1ccccc1)P(=O)(O)O (stereo not given)	4.16
O=P([O-])(O)C(O)(C[n+]1cccc(Br)c1)P(=O)(O)O (stereo not given)	4.26
O=P([O-])(O)C(O)(C[n+]1cccc(Cl)c1)P(=O)(O)O (stereo not given)	4.24

P. CCCCc1ccc[n+](CC(P(=O)([O-])O)P(=O)(O)O)c1 (stereo not given)
Q. CCc1ccc[n+](CC(P(=O)([O-])O)P(=O)(O)O)c1 (stereo not given)
Please indicate which item has the smaller measured pIC50: P versus Q When you have decided, please share the label of that item.
Q
(Q: 4.21, P: 4.48)

---

system: MCF7; assay: Antiproliferative activity against human MCF7 cell line by MTT assay; format: functional, cell-based
quantity kind: IC50 (µM)

Would you please look over these solved cases?
molecule	IC50 (µM)
O=P(O)(O)C(O)(Cn1ccnc1)P(=O)(O)O [ZOLEDRONIC ACID]	27.7
O=P(O)(O)C(O)(Cc1ccc(-c2cccc(-c3ccccc3)c2)cc1)P(=O)(O)O	412
O=P([O-])(O)C(O)(C[n+]1cccc(-c2ccccc2)c1)P(=O)(O)O (centres undefined)	44.2
CC(C)(C)C(=O)OCOP(=O)(OCOC(=O)C(C)(C)C)C(Cc1ccc(Cl)c(Cl)c1)P(=O)(OCOC(=O)C(C)(C)C)OCOC(=O)C(C)(C)C	0.34
Cc1ccc2c(ccc[n+]2CC(O)(P(=O)([O-])O)P(=O)(O)O)c1 (centres undefined)	260
NCCC(O)(P(=O)(O)O)P(=O)(O)O [PAMIDRONIC ACID]	141
Cc1ccc[n+](CC(P(=O)([O-])O)P(=O)(O)O)c1 (centres undefined)	38.1

I. O=P([O-])(O)C(C[n+]1cccc(-c2ccccc2-c2ccccc2)c1)P(=O)(O)O (centres undefined)
II. O=P([O-])(O)C(C[n+]1cccc(-c2ccc(-c3ccccc3)cc2)c1)P(=O)(O)O (centres undefined)
Please indicate which item has the smaller measured IC50: I versus II When you have decided, please share the label of that item.
II
(II: 25.1 µM, I: 236 µM)

---

system: NCI-H460; assay: Antiproliferative activity against human NCI-H460 cell line by MTT assay; format: functional, cell-based
quantity kind: IC50 (µM)

Would you please look over these solved cases?
molecule	IC50 (µM)
O=P(O)(O)C(O)(Cn1ccnc1)P(=O)(O)O	11.7
O=P(O)(O)C(O)(CCc1cccc(-c2ccc(-c3ccccc3)cc2)c1)P(=O)(O)O	132
CC(C)(C)C(=O)OCOP(=O)(OCOC(=O)C(C)(C)C)C(Cc1ccc(Br)c(Br)c1)P(=O)(OCOC(=O)C(C)(C)C)OCOC(=O)C(C)(C)C	0.62
CC(C)OC(=O)OCOP(=O)(OCOC(=O)OC(C)C)C(Cc1cccc(C#N)c1)P(=O)(OCOC(=O)OC(C)C)OCOC(=O)OC(C)C	22.6
O=P(O)(O)C(O)(Cc1ccc(-c2cccc(-c3ccccc3)c2)cc1)P(=O)(O)O	413
CN(CCCCc1ccccc1)CCC(O)(P(=O)(O)O)P(=O)(O)O	22.9

A. CCCCc1ccc[n+](CC(O)(P(=O)([O-])O)P(=O)(O)O)c1 (centres undefined)
B. O=P([O-])(O)C(C[n+]1cccc(I)c1)P(=O)(O)O (centres undefined)
Between these two entries, A and B , state which has the higher IC50. When you have decided, please share the label of that item.
B
(B: 53.7 µM, A: 14.8 µM)

---

test system: MCF7; experiment: Antiproliferative activity against human MCF7 cell line by MTT assay; format: functional, cell-based
pIC50: −log10 of the molar value.
quantity kind: pIC50

Would you please look over these solved cases?
compound	observed result
O=P(O)(O)C(CNCc1cccc(-c2ccccc2)c1)P(=O)(O)O	4.34
CC(C)OC(=O)OCOP(=O)(OCOC(=O)OC(C)C)C(Cc1ccc(F)c(F)c1)P(=O)(OCOC(=O)OC(C)C)OCOC(=O)OC(C)C	4.82
O=P([O-])(O)C(C[n+]1cccc(Cl)c1)P(=O)(O)O (centres undefined)	3.88
CC(C)(C)C(=O)OCOP(=O)(OCOC(=O)C(C)(C)C)C(CNc1ccccn1)P(=O)(OCOC(=O)C(C)(C)C)OCOC(=O)C(C)(C)C	5.19
O=P([O-])(O)C(C[n+]1cccc(C(F)(F)F)c1)P(=O)(O)O (centres undefined)	3.89
O=P(O)(O)C(CNc1ccccn1)P(=O)(O)O	3.65

P. CCCCc1ccc[n+](CC(P(=O)([O-])O)P(=O)(O)O)c1 (centres undefined)
Q. CC(C)OC(=O)OCOP(=O)(OCOC(=O)OC(C)C)C(Cc1cccc(C#N)c1)P(=O)(OCOC(=O)OC(C)C)OCOC(=O)OC(C)C
Please indicate which item has the smaller measured pIC50: P versus Q When you have decided, please share the label of that item.
Q
